# PROCEDURE TEXT: self-splicing fitness, log relative to wild type (ln ratio); higher = more splicing; Tetrahymena group I intron in knt gene, E. coli kanamycin selection, DiMSum; sequences stand for … in CUCUCU…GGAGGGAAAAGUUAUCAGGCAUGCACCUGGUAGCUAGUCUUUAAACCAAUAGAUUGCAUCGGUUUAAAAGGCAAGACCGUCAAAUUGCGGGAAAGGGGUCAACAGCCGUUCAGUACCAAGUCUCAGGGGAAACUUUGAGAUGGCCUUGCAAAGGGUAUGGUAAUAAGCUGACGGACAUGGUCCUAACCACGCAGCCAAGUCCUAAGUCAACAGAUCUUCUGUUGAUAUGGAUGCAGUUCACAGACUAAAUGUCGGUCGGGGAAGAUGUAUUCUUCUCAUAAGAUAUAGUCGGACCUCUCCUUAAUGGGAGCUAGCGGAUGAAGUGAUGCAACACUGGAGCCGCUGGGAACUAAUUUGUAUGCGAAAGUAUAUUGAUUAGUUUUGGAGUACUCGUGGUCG;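 note: selection with 25 µg/mL kanamycin versus none on LB agar overnight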
# CONDITION INFO: 30 °C
Label rule, in plain words: self-splicing fitness (ln) of -3 and up is fulfilled, under -3 is not fulfilled.

Please review the following examples before continuing.
I'd appreciate it if you could say whether `GCCGAGCAAUAUUACGCAUU` has self-splicing fitness (ln) at least equal to -3.
fulfilled

Then what about the sequence `AUGGAGCAAUAUUACGCUGU` ?
fulfilled

Then what about the sequence `ACUAAGCAAUAUUACGUCUG` ?
fulfilled

***
I'd appreciate it if you could say whether `GCAUAGCAAUAUUACGCCUC` has self-splicing fitness (ln) at least equal to -3.
fulfilled

Then what about the sequence `GGGUAGCAAUAUUACGGGGA` ?
not fulfilled

Then what about the sequence `UUGCAGCAAUAUUACGGCAC` ?
fulfilled

Then what about the sequence `CGCUAGCAAUAUUACGUGGU` ?
not fulfilled

Then what about the sequence `UACUAGCAAUAUUACGCCUG` ?
fulfilled

Then what about the sequence `AUCUAGCAAUAUUACGAUGA` ?
fulfilled

Then what about the sequence `AUUAAGCAAUAUUACGCGGA` ?
fulfilled

Then what about the sequence `ACUCAGCAAUAUUACGUGCA` ?
fulfilled

Cited source for all entries: the supplement of paper PMC7877785
